Data credit: patent US20100196919A1

# target.of.assay: solid-phase tTG (Homo sapiens)
# Construct: purchased Eurospital
# Sequence (P21980 1-687): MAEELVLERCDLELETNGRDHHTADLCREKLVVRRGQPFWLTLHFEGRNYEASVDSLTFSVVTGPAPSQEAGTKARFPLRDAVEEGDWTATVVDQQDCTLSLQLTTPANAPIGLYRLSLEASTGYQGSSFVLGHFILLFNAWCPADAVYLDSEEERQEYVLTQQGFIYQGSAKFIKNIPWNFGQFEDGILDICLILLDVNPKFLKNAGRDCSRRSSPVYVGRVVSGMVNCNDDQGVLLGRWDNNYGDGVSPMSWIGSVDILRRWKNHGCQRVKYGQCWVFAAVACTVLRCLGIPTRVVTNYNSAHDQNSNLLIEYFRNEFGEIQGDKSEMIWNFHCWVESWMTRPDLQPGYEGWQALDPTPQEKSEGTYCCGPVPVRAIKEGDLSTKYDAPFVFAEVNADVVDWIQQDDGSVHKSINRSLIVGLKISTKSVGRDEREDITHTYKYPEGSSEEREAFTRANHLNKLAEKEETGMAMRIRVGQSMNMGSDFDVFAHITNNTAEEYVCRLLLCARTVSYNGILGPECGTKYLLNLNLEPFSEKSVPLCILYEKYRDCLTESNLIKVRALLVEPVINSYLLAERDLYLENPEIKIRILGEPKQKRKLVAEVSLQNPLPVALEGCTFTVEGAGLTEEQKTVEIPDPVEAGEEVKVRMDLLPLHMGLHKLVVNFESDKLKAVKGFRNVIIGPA
# test.name: Competitive ELISA using tTG-coated plates
# Format: binding
# condition.summary: pre-incubation with competitor, 0.6-20 μg/ml
measured.property: inhibition of antibody binding to solid-phase tTG by liquid-phase competitor

| monomer.sequence | recorded.value |
| --- | --- |
| RIRVGQSMNMGS [tTG peptide] | inhibited |
| VVKVGGSSSLGW [celiac peptide] | inhibited |
| VTLPKDSDVELP [irrelevant control peptide] | not |
| VIQVGGSNVLDI [VP-7 peptide] | inhibited |

* * *

# target.of.assay: solid-phase TLR4 peptide (Homo sapiens)
# Construct: made in house; host or cells: chemical solid-phase synthesis (FMOC)
# test.name: Competitive ELISA on solid-phase TLR4 peptide
# Type: binding
# condition.summary: liquid-phase competitor
# Text: The direct and competitive ELISA for antibody binding to the synthetic peptides have already been described elsewhere. […] Bound antibodies were detected by an alkaline phosphatase-conjugated anti-human IgA antiserum (1:1,000 in diluting buffer) (Sigma, St. Louis, Mo., United States) or with an alkaline phosphatase-conjugated anti-human IgG antiserum (1:2,000 in diluting buffer) (Sigma). […] Results are expressed as: […]
measured.property: inhibition of binding of anti-celiac peptide antibodies to solid-phase TLR4 peptide

| monomer.sequence | recorded.value |
| --- | --- |
| VTLPKDSDVELP [irrelevant control peptide] | not |
| VLKMAGNSFQEN [TLR4 peptide] | Inhibition |
| VVKVGGSSSLGW [celiac peptide] | Inhibition |
| VIQVGGSNVLDI [VP-7 peptide] | Inhibition |
